test: Therapeutic index, ratio of toxicity in ip dosed mouse allografted with mouse L1210 cells assessed as highest dose required for 40% increase in life span to antitumor activity against mouse L1210 cells allografted in ip dosed mouse assessed as lowest dose required for 40% increase in life span
Assay type: organism-based
condition.description: in vivo, read-out: TI
endpoint: selectivity ratio

compound: Nc1ncn([C@@H]2O[C@H](CO)[C@@H](O)[C@H]2O)c(=O)n1
measured.result: 14

compound: Cl.NC1=NC(=O)N([C@@H]2O[C@H](CO)[C@@H](O)[C@H]2O)CN1
measured.result: 40

====

test: Drug degradation in lactated Ringer's solution at 25 degC after 4.7 hrs
Format: physicochemical
condition.description: read-out: Drug degradation

compound: Nc1ncn([C@@H]2O[C@H](CO)[C@@H](O)[C@H]2O)c(=O)n1 [AZACITIDINE]
u: %
degraded at 4.7 h: 15
